Molecular target: DNA-directed RNA polymerase subunit beta (Escherichia coli (strain K12)) (UniProt P0A8V2)
Sequence (P0A8V2 whole entry, looked up): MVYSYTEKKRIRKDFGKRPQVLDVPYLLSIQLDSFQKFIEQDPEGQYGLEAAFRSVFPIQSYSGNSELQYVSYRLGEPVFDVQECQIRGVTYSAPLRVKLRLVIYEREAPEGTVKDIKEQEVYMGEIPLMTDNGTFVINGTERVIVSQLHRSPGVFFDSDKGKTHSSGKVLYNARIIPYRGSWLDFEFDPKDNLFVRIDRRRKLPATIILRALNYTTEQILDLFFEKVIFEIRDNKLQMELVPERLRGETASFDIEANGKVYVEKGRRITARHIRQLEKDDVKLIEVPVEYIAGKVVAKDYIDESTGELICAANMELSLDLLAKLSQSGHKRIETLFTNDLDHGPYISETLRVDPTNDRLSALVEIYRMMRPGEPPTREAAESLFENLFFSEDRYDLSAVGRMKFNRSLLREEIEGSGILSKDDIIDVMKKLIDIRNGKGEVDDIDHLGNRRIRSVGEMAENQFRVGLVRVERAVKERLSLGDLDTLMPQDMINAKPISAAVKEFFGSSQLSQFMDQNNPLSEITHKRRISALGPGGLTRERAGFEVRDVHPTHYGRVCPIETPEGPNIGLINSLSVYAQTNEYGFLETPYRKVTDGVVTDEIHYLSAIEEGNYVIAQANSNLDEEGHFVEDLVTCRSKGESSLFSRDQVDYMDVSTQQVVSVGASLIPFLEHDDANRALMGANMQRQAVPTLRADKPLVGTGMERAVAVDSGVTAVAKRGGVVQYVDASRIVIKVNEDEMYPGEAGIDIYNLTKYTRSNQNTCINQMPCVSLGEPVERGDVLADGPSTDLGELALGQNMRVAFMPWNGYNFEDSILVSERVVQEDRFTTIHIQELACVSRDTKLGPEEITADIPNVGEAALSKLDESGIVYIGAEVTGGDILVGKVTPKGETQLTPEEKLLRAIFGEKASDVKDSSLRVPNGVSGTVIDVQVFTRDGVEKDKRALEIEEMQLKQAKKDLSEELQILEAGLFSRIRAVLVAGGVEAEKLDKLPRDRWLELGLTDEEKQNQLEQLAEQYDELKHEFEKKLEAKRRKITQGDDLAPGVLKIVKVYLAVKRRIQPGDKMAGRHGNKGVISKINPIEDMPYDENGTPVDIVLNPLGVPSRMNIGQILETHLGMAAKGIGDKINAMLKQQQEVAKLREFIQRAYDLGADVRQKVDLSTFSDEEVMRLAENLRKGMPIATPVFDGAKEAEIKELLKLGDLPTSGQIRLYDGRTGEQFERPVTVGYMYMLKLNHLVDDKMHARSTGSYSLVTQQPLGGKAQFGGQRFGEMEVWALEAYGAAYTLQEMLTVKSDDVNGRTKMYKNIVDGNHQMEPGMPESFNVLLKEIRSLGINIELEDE
Experiment: bacterial RNA polymerase transcription inhibition – biochemical (AID 559);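 further: 0% = enzyme without compound and 100% = no enzyme blank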
Conditions: E. coli RNA polymerase, fluorescence transcription assay; stronger effect = higher value;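 tested at 10 µM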
Hit rate of the full screen: of about 62,000 compounds, about 100 (0.2%) were called active. The sample holds actives, similar compounds and a random draw of the others, so the mix is not that of the screen.
I'd appreciate it if you could supply inhibition values for the items below.
Answers are plain numbers, in %.

# count of solved cases: 2
- molecule: "CC(=O)Oc1cccc(N2C(=O)C3CC=C(Cl)CC3C2=O)c1 (stereo not drawn)"
  inhibition, %: 9.02
- molecule: "CCOCCCNS(=O)(=O)Cc1ccccc1"
  inhibition, %: 8.39

Next item in the queue.
stdin: Give its inhibition value. Item: "Cc1ccccc1CN1CCN(CC(=O)NCc2ccccn2)C1=O"
stdout: -3.92

----------
Target: DNA-directed RNA polymerase subunit beta (Escherichia coli (strain K12)) (UniProt P0A8V2)
Test: bacterial RNA polymerase transcription inhibition – biochemical (AID 559);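 further: 0% = enzyme without compound and 100% = no enzyme blank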
Conditions: E. coli RNA polymerase, fluorescence transcription assay; stronger effect = higher value;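 tested at 10 µM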
The whole screen tested about 62,000 compounds, of which about 100 (0.2%) were called active. The sample as a whole holds a higher share of actives than the screen did.
observable: inhibition (%)
Answers are plain numbers, in %.

# count of solved cases: 5
- molecule: "CCOC(=O)c1ccc(NC(=O)CSc2ncccn2)cc1"
  unitOfMeasurement: "%"
  inhibition: 18.1
- molecule: "Cc1cc(C)n(C(=O)c2ccc(S(=O)(=O)N3CCCC3)cc2)n1"
  unitOfMeasurement: "%"
  inhibition: -6.35
- molecule: "COCCN(C(=O)CCC(=O)Nc1ccccn1)C(C(=O)NCCC(C)C)c1ccc(OC)cc1 (configuration not stated)"
  unitOfMeasurement: "%"
  inhibition: 9.79
- molecule: "CCCN1C(=O)C(NC(C)=O)c2cc(OC)ccc21 (configuration not stated)"
  unitOfMeasurement: "%"
  inhibition: 8.13
- molecule: "Cc1csc(NC(=O)NC2(C(F)(F)F)Oc3ccccc3O2)n1"
  unitOfMeasurement: "%"
  inhibition: 30.9

Record inhibition for all entries; do not skip any.
1. Cn1c(=O)n(C)c(=O)n(CC(=O)N2CCCCC2)c1=O
2. CCCCOC(=O)NCN1C(=O)C2C3C=CC(C3)C2C1=O (configuration not stated)
3. Cc1nnc(SCC(=O)N2CCc3ccccc32)n1-c1ccccc1
4. CC(C)(C)NC(=O)NC(=O)COC(=O)Cn1c(C(F)(F)F)nc2ccccc21
5. O=C(Nc1cc(N2CCOCC2)ncn1)NC1(C(F)(F)F)Oc2ccc(Cl)cc2O1 (configuration not stated)
6. Cc1noc(C)c1S(=O)(=O)Nc1ccc(C(=O)O)cc1

stdout:
[5.37, 0.68, 5.59, -0.99, 35.4, -2.73]

----------
Biological target: DNA-directed RNA polymerase subunit beta (Escherichia coli (strain K12)) (UniProt P0A8V2)
Assay: bacterial RNA polymerase transcription inhibition – biochemical (AID 559);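 further: 0% = enzyme without compound and 100% = no enzyme blank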
Settings: E. coli RNA polymerase, fluorescence transcription assay; stronger effect = higher value;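 tested at 10 µM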
About 100 (0.2%) of roughly 62,000 compounds were called active. What follows is part of a selection rich in actives, with near analogues and random picks from the rest.
observable: inhibition (%)
Answers are plain numbers, in %.

# count of solved cases: 4
- compound: "CCOC(=O)C1CCCN(C(=O)c2sc3nc(C)nc(N4CCOCC4)c3c2C)C1 (stereo unspecified)"
  unitOfMeasurement: "%"
  numericValue: 6.92
- compound: "COc1ccc(CNC(=O)c2c(C)cc(=O)oc2C)cc1OC"
  unitOfMeasurement: "%"
  numericValue: 8.6
- compound: "Cc1cc(C)nc(NC2=NCC(=O)N2c2ccc(Cl)cc2)n1"
  unitOfMeasurement: "%"
  numericValue: 9.3
- compound: "O=C(COC(=O)c1ccccc1C(=O)c1ccccc1)c1ccco1"
  unitOfMeasurement: "%"
  numericValue: 4.61

Record inhibition for all entries; do not skip any.
1. CCOC(=O)CC1C(=O)NCCN1C(=O)COc1ccc(Br)cc1C (stereo unspecified)
2. COc1cccc(C(CC(=O)NCCN2CCOCC2)NS(=O)(=O)c2ccc(C)cc2)c1OC (stereo unspecified)
3. CCC(C)(NC(=O)c1ccccn1)C(=O)NC1CCCCC1 (stereo unspecified)
4. Cc1cccc(C2c3c(n(C)c(=O)n(C)c3=O)N=C3c4ccccc4C(=O)C32)c1 (stereo unspecified)

stdout:
1. 4.26
2. 4.2
3. 24.2
4. 8.94

----------
Molecular target: DNA-directed RNA polymerase subunit beta (Escherichia coli (strain K12)) (UniProt P0A8V2)
Assay: bacterial RNA polymerase transcription inhibition – biochemical (AID 559);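 further: 0% = enzyme without compound and 100% = no enzyme blank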
Conditions: E. coli RNA polymerase, fluorescence transcription assay; stronger effect = higher value;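 tested at 10 µM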
In all, about 62,000 compounds went through this assay and about 100 (0.2%) were called active. This excerpt belongs to a sample that is enriched for actives.
I'd appreciate it if you could supply inhibition values for the items below.
One number for each entry, in %.

# count of solved cases: 2
- molecule: "COc1ccc(CN2CN(C(C)C)CSC2=S)cc1"
  inhibition (%): 0.75
- molecule: "CN(C)/C=C1/C(=O)Nc2ccccc21"
  inhibition (%): 12.9

Record inhibition for all entries; do not skip any.
1. Nc1nnnn1/N=C/c1cccs1
2. O=C(N1CCOCC1)N1CCOCC1
3. COc1ccc(CC(=O)c2ccc(O)cc2O)cc1OC
4. O=C(c1ccc2c(c1)N(Cc1ccc(F)cc1)C(=O)CS2)N1CCOCC1
5. CN(CC(=O)NC1CCCCC1)S(=O)(=O)c1cccc2cccnc12
6. CCC12CN3CC(CC)(CN(C1)C31C(=O)N(C)c3ccc(C)cc31)C2=O (stereo not drawn)

stdout:
0.8
0.65
-2.96
-0.9
1.4
9.74
